System: MOLT-4 leukemia
Assay: NCI tumour cell line growth inhibition, 48 h
Measured Property: TGI (µM)
Answer with a number only, understood to be in µM.

Substance Smiles | TGI [µM]
c1ccc2c(c1)[nH]c1cnc3c4cccnc4[nH]c3c12 | 49.3

API: the following record is the query input.
Asked: Quick one: TGI of "C#CC(F)(F)[C@]1(O)CC[C@H]2[C@@H]3CCC4=CC(=O)CCC4=C3[C@@H](c3ccc(C(C)=O)cc3)C[C@@]21C" ?
Given back: 63.4

* * *

Tested on: DU-145 prostate
Experiment: NCI tumour cell line growth inhibition, 48 h
TGI by entry:
Answer with a number only, understood to be in µM.

Example entries begin here.
Substance Smiles | Target Entity | Measured Property | Number
CN(C)CCNC(=O)c1cccc2nc3c(nc12)-c1ccccc1C3=O | DU-145 prostate | TGI | 70
O=Nc1ccc2ccccc2c1O | DU-145 prostate | TGI | 22.7
CC(C)NC(=O)OCc1c(COC(=O)NC(C)C)c(-c2ccc(Cl)cc2)n2c1CCC2 | DU-145 prostate | TGI | 7.18

Asked: Quick one: TGI of "COc1ccc2c(c1)C(=O)/C(=C/c1ncc([N+](=O)[O-])n1C)O2" ?
Given back: 2.98

Asked: Quick one: TGI of "c1cn2cc(-c3ccc4cn[nH]c4c3)nc(Nc3ccc(N4CCOCC4)cc3)c2n1" ?
Given back: 23.5
